Source of measurements: patent US20150005311A1

target: IP receptor (Homo sapiens, UniProt P43119); assay: cAMP accumulation in CHO cells stably expressing the IP receptor (CHO-IP), PerkinElmer AlphaScreen assay; conditions: 1 hour at room temperature, 4-parameter logistic fit
Sequence (P43119 whole entry): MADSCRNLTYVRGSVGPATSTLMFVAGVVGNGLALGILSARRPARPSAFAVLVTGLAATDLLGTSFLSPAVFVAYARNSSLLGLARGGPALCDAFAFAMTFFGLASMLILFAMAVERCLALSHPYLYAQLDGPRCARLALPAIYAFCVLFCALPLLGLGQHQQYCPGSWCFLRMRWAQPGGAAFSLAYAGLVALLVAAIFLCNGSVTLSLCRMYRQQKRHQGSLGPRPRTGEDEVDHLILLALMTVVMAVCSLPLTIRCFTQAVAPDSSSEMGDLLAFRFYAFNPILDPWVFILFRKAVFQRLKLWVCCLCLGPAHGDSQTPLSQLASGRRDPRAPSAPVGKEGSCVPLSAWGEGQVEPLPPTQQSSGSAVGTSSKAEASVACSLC
EC50 vs 0.6 nM: less than gives Met; not less than gives Not met.

EC50 strictly < 0.6 nM for this compound? Cc1ccc(-c2nc3c(nc2-c2ccc(C)cc2)N(CCCCCc2nnn[nH]2)CC(O)C3)cc1 (single isomer, unassigned) [Example 4b]
Not met

EC50 under 0.6 nM? Item: Cc1ccc(-c2nc3c(nc2-c2ccc(C)cc2)N(CCCCCc2nnn[nH]2)CC(O)C3)cc1 (single isomer, unassigned) [Example 4a]
Not met

Does this compound meet the criterion EC50 < 0.6 nM? Cc1ccc(-c2nc3c(nc2-c2ccc(C)cc2)N(CCCCCCc2nnn[nH]2)CC(O)C3)cc1 (single isomer, unassigned) [Example 3a]
Not met

For this compound, is EC50 lower than 0.6 nM? Cc1ccc(-c2nc3c(nc2-c2ccc(C)cc2)N(CCCCCCc2nnn[nH]2)CC(O)C3)cc1 (racemic) [Example 3]
Met

Decide: EC50 of Cc1ccc(-c2nc3c(nc2-c2ccc(C)cc2)N(CCCCCc2nnn[nH]2)CCC3)cc1 strictly below 0.6 nM?
Met

Quick check: does Cc1ccc(-c2nc3c(nc2-c2ccc(C)cc2)N(CCCCCCc2nnn[nH]2)CCC3)cc1 have EC50 under 0.6 nM?
Met

Quick check: does Cc1ccc(-c2nc3c(nc2-c2ccc(C)cc2)N(CCCCCc2nnn[nH]2)CC(O)C3)cc1 (racemic) [Example 4] have EC50 under 0.6 nM?
Not met

Record Cc1ccc(-c2nc3c(nc2-c2ccc(C)cc2)N(CCCCCCc2nnn[nH]2)CC(O)C3)cc1 (single isomer, unassigned) [Example 3b] : is its EC50 strictly below 0.6 nM?
Not met
